Listed here: items and their measured Kd.
# target: TRIM24 (Homo sapiens, UniProt O15164)
# Sequence (O15164 899-1004 limits assumed): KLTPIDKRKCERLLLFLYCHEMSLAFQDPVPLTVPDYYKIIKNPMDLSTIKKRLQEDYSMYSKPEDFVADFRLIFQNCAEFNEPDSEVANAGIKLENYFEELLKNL
# method-notes: BROMOscan DiscoveRx Binding Constant Assay (TRIM24)
# measurement-parameters: qPCR readout

Examples with answers:
compound	target	reported-measurement
COCCCOc1cccc(Oc2cc3c(cc2NS(=O)(=O)c2cn(C)c(C)n2)n(C)c(=O)n3C)c1	TRIM24 (Homo sapiens, UniProt O15164)	11 to 100 nM
Cn1c(=O)n(C)c2cc(Oc3cccc(OCC(F)(F)F)c3)c(NS(=O)(=O)c3cccnc3)cc21	TRIM24 (Homo sapiens, UniProt O15164)	1 to 10 nM
CCCOc1cc(OCCCCCCN)cc(Oc2cc3c(cc2NS(=O)(=O)c2cn(C)cn2)n(C)c(=O)n3C)c1 [Example 8, 2,2,2-trifluoroacetate]	TRIM24 (Homo sapiens, UniProt O15164)	< 1 nM
CCCOc1cccc(Oc2cc3c(cc2NS(=O)(=O)c2ccc(OC)c(OC)c2)n(C)c(=O)n3C)c1	TRIM24 (Homo sapiens, UniProt O15164)	1 to 10 nM

We next turn to a different compound, shown below.
Data request: Give Kd for the following compound: Cc1nc(S(=O)(=O)Nc2cc3c(cc2Oc2cccc(OCC(C)C)c2)n(C)c(=O)n3C)cn1C
Data returned: 1 to 10 nM

###

# target: Recombinant human His-tagged Trim24-PHD-bromodomain (Homo sapiens, UniProt O15164)
# Construct: Recombinant human His-tagged Trim24-PHD-bromodomain (produced in-house); made in house
# method-notes: Trim24 AlphaScreen Assay
# Format: binding
# measurement-parameters: 5 nM Trim24 protein, 15 nM biotinylated H3K23ac (1-33aa) peptide
pIC50: −log10 of the molar value.
observation-type: pIC50

Examples with answers:
compound	target	pIC50
COCCS(=O)(=O)Nc1cc2c(cc1Oc1cccc(OCC(F)(F)F)c1)n(C)c(=O)n2C [Example 89]	Recombinant human His-tagged Trim24-PHD-bromodomain (Homo sapiens, UniProt O15164)	6.00 to 7.00
CC(C)COc1cccc(Oc2cc3c(cc2NS(=O)(=O)C2CC2)n(C)c(=O)n3C)c1 [Example 59]	Recombinant human His-tagged Trim24-PHD-bromodomain (Homo sapiens, UniProt O15164)	6.00 to 7.00
CCCOc1cc(OCCCCCCN)cc(Oc2cc3c(cc2NS(=O)(=O)c2ccccn2)n(C)c(=O)n3C)c1 [Example 187]	Recombinant human His-tagged Trim24-PHD-bromodomain (Homo sapiens, UniProt O15164)	7.00 to 8.00
CCCOc1cccc(Oc2cc3c(cc2NS(=O)(=O)c2cn(C)cn2)n(C)c(=O)n3C)c1 [Example 83]	Recombinant human His-tagged Trim24-PHD-bromodomain (Homo sapiens, UniProt O15164)	7.00 to 8.00
COc1ccccc1S(=O)(=O)Nc1cc2c(cc1Oc1cccc(OCc3ccccc3)c1)n(C)c(=O)n2C [Example 52]	Recombinant human His-tagged Trim24-PHD-bromodomain (Homo sapiens, UniProt O15164)	6.00 to 7.00
Cn1c(=O)n(C)c2cc(Oc3cccc(OCc4ccccc4)c3)c(NS(=O)(=O)c3ccc(F)cc3)cc21 [Example 15]	Recombinant human His-tagged Trim24-PHD-bromodomain (Homo sapiens, UniProt O15164)	< 6.00
Cc1n[nH]c(C)c1S(=O)(=O)Nc1cc2c(cc1Oc1cccc(OCc3ccccc3)c1)n(C)c(=O)n2C [Example 2]	Recombinant human His-tagged Trim24-PHD-bromodomain (Homo sapiens, UniProt O15164)	6.00 to 7.00
CCCOc1cc(OCCCCN(C)C)cc(Oc2cc3c(cc2NS(=O)(=O)c2cnn(C)c2C)n(C)c(=O)n3C)c1 [Example 217]	Recombinant human His-tagged Trim24-PHD-bromodomain (Homo sapiens, UniProt O15164)	7.00 to 8.00

Data request: Give pIC50 for the following compound: CCCOc1cccc(Oc2cc3c(cc2NS(=O)(=O)c2cccc(C(=O)O)c2)n(C)c(=O)n3C)c1 [Example 208]
Data returned: 7.00 to 8.00

Data request: Give pIC50 for the following compound: Cn1cnc(S(=O)(=O)Nc2cc3c(cc2Oc2cccc(OCCCCC(=O)O)c2)n(C)c(=O)n3C)c1 [Example 228]
Data returned: 6.00 to 7.00

Data request: Give pIC50 for the following compound: Cn1c(=O)n(C)c2cc(Oc3cccc(OCc4ccccc4)c3)c(NS(=O)(=O)c3cn[nH]c3)cc21 [Example 51]
Data returned: 6.00 to 7.00

Data request: Give pIC50 for the following compound: CCCOc1cc(Oc2cc3c(cc2NS(=O)(=O)c2cn(C)cn2)n(C)c(=O)n3C)ccc1OC [Example 114]
Data returned: < 6.00
